Sourced from PubChem BioAssay (NCI)

- System: MALME-3M melanoma
- procedure details: NCI tumour cell line growth inhibition, 48 h; in the data active = GI50 below about 0.43 µM; inactive = the rest
Your answer must be one of the following: y for active, n for inactive

Illustrative cases are given below, each with its answer.
| compound | cat |
| --- | --- |
| COc1ccc(/C=N/N=C(\[O-])c2ccncc2)cc1F.COc1ccc(/C=N\N=C(/[O-])c2ccncc2)cc1F.[Cu+2] | n |
| N#Cc1cccc(OCc2ccccc2COc2cccc(C#N)c2)c1 | n |

Continue with the compound presented below.
IN: Field: outcome | Entry: CCC1(O)CC(OC2CC(N(C)C)C(OC3CC(O)C(OC4CCC(=O)C(C)O4)C(C)O3)C(C)O2)c2c(O)c3c(c(O)c2C1C(=O)OC)C(=O)c1cccc(O)c1C3=O (stereo not drawn)
OUT: y

====

Consider the following compounds and their measured TGI readings.
- Test system: HT29 colon
- procedure details: NCI tumour cell line growth inhibition, 48 h

Observe how each entry below is paired with its result.
| compound | target or test system | reported property | experimental value |
| --- | --- | --- | --- |
| CCOP(=O)(OCC)C(Nc1ccc(F)cc1)c1ccccc1 (stereo unspecified) | HT29 colon | TGI | > 100 µM |
| COc1ccccc1NCC(=O)Nn1c(C)nc2ccc(S(=O)(=O)Nc3ccccc3OC)cc2c1=O | HT29 colon | TGI | > 100 µM |
| Cc1ncc([N+](=O)[O-])n1CCNC(=O)CCCCCn1ccnc1[N+](=O)[O-] | HT29 colon | TGI | > 100 µM |
| COc1ccc(NC(=O)/C=C(C)/C=C/C=C(C)\C=C\C2=C(C)CCCC2(C)C)cc1 | HT29 colon | TGI | > 100 µM |
| COC(=O)Cc1nc2ccccc2o1 | HT29 colon | TGI | > 100 µM |
| NC(=O)N/N=C(/c1nc2ccc([N+](=O)[O-])cc2[nH]c1=O)C(O)c1ccco1 (stereo unspecified) | HT29 colon | TGI | > 100 µM |
| C=CCCC(=O)N1C=CC(=O)[C@H](O)[C@@H]1/C=C/c1ccccc1 | HT29 colon | TGI | > 32.5 µM |
| CC(C)N(C(C)C)P(OCCC#N)OC1CC(n2cnc3c(=O)[nH]cnc32)OC1COC(=O)NCCCCCCNC(=O)OC(C)(C)c1ccc(-c2ccccc2)cc1 (stereo unspecified) | HT29 colon | TGI | > 100 µM |
| O=C(CCl)Nc1cc(O)c2c(c1)C(=O)c1cccc(O)c1C2=O | HT29 colon | TGI | 3.89 µM |
| COc1ccc(C2C(Cl)C(=O)N2NC(=O)Cc2ccccc2)cc1OC (stereo unspecified) | HT29 colon | TGI | > 100 µM |

IN: Report TGI for "C=CCN1CCC2(CC1)NC(=O)c1ccccc1O2" please.
OUT: > 100 µM

IN: Proceed to CCCCCCCCCCSCC(CO)NC(=O)/C=C/c1c(C)[nH]c(=O)[nH]c1=O (stereo unspecified)
OUT: > 50 µM

IN: Proceed to "CN(C)CCNc1nc2c(no[n+]2[O-])c2ccccc12"
OUT: > 100 µM

IN: Proceed to O=P1(c2ccccc2)C2=CCC=CC2C(c2ccccc2)N1Cc1ccccc1 (stereo unspecified)
OUT: 24.2 µM

IN: Proceed to "COc1cc2c(cc1OCCCCCOc1cc3c(cc1OC)C(=O)N1CCC[C@H]1CN3)N=C[C@@H]1CCCN1C2=O"
OUT: 37.3 µM

IN: Proceed to "C#CCN(C)C(=O)N(CC#C)N=O"
OUT: > 100 µM

IN: Proceed to "O=C1c2ccn(CCCCN3CCC(O)CC3)c2C(=O)c2c1c(O)c1ccccc1c2O"
OUT: > 100 µM

IN: Proceed to "C[N+](C)([O-])CCCNc1ccnc2cccc([N+](=O)[O-])c12"
OUT: > 100 µM

IN: Proceed to "CN(C)c1ccc(/C=c2/c3cc([N+](=O)[O-])ccc3n3c2cc(-c2ccccc2)[n+]3C)cc1"
OUT: 6.76 µM

IN: Proceed to CC1(C)CC[C@]2(C(=O)O)[C@H](O)C[C@]3(C)C(=CC[C@@H]4[C@@]5(C)CC[C@H](OC6OC(C(=O)O)C(O)C(O)C6O)C(C)(C)[C@@H]5CC[C@]43C)[C@@H]2C1 (stereo partly specified)
OUT: > 100 µM
